Data provenance is patent US8765787B2.

# methodNotes: Solubility of norketotifen (saturated solutions, HPLC)
# Assay type: physicochemical
# assaySetup: water, thermodynamic from solid; read-out: water solubility

# compound, solubility
rows = [
    ("O=C1Cc2ccccc2C(=C2CCNCC2)c2ccsc21 [norketotifen]", "~2160 µg/mL"),
    ("CN1CCC(=C2c3ccccc3CC(=O)c3sccc32)CC1 [ketotifen]", "~12500 µg/mL"),
]

----------
# methodNotes: Solubility of norketotifen (saturated solutions, HPLC)
# Assay type: physicochemical
# assaySetup: propylene glycol, organic solvent or mixture, thermodynamic from solid; read-out: solubility of norketotifen in propylene glycol

# smilesRepr, solubility
data = [
    ("O=C1Cc2ccccc2C(=C2CCNCC2)c2ccsc21", "~10000 µg/mL"),
]
